Recorded values, source the supplement of paper PMC6757056.

B1: library; a variant is named by its letters at N, in order (parent)
chain: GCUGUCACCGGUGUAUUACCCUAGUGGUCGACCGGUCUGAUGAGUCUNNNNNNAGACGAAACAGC

Variants of: B1
Experiment: normalized RNA/DNA level without ligand (relative to sTRSVctl = 100) (log10 (% of sTRSVctl)); ligand: hypoxanthine (xanthine aptamer); higher = less ribozyme self-cleavage, higher mRNA level
Conditions: HEK293T, reporter: mCherry (pCS4076), ligand present: no
observation_type: normalized RNA/DNA level without ligand (log10)

> print(dat)
    mutant.name  test.result
 1       ACGCCC         1.87
 2       CCCGAG         1.65
 3       CAAAUC         1.93
 4       GAGCCG         1.44
 5       GCGCUA         1.68
 6       CGGAUA         1.51
 7       ACGAGC         1.27
 8       UCCCUA         1.79
 9       UCUGCA         1.88
10       CAUGUU         1.88
11       AAGAGC         1.53
12       UGGAGA         1.33
13       AUAUGC         1.76
14       AGCCUU         1.93
15       AACAAC         1.86
16       CGUUAG         1.77
17       AAUGUU         1.85
18       GAUGUU         1.84
19       CGCAGC         1.87
20       AUAUCU         1.84
21       GUUGGG         1.52
22       CACCAU          1.8
23       GGUUGU         1.76
24       GAAGAU          1.8
25       GUAGGA         1.66
26       CCAAUU         1.85
27       ACUCAU         1.84
28       CUCGAC         1.81
29       UUCAAA          1.8
30       UUUGCG         1.78
31       UCGUCG         1.85
32       AAUUAU         1.82
33       AUAACC         1.88
34       GAAUGG         1.22
35       UUUUUA         1.93
36       UACUGG         1.49
37       UAAACA         1.88
38       CCCCUA         1.85
39       CUACUA         1.78
40       AAUACG         1.44
41       CCCUGU         1.94
42       UACAAC         1.82
43       UGCCUG         1.73
44       AUAACA         1.83
45       CCCACA         1.86
46       UCCGCU         1.94
